Measurement Target: Phosphatidylserine lipase ABHD16A (Homo sapiens, UniProt O95870)
Sequence (O95870 whole entry): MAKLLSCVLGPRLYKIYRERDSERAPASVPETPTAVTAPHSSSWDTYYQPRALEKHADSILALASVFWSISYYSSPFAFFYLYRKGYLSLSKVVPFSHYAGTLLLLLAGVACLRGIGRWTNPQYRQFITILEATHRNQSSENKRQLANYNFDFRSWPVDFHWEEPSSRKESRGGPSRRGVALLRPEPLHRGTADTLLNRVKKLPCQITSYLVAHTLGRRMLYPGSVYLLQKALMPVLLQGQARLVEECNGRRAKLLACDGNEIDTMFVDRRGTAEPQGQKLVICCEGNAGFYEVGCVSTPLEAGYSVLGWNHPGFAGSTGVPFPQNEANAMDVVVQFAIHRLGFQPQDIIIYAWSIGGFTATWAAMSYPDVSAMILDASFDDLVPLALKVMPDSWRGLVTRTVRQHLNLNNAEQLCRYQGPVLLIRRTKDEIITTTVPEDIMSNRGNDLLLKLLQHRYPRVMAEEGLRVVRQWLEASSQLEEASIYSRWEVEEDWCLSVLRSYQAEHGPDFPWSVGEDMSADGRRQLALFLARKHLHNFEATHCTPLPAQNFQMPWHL
Experiment Notes: Inhibition of recombinant BAT5 transfected in HEK293T cells by SDS-PAGE using rhodamine-tagged FP probe
Answer each item with its documented pIC50.
Please keep in mind that pIC50 is minus log10 of the molar concentration; only the number is needed.

GET /values?readout=pIC50&item= CCCCCCCCCCC[C@@H](C[C@@H]1OC(=O)[C@H]1CCCCCC)OC(=O)[C@H](CC(C)C)NC=O 7.52

Further, for O=C(NCCCCCCNC(=O)ON=C1CCCCC1)ON=C1CCCCC1 ? 4.64

----------
Measurement Target: Diacylglycerol lipase-beta (Homo sapiens)
Sequence (Q8NCG7 whole entry): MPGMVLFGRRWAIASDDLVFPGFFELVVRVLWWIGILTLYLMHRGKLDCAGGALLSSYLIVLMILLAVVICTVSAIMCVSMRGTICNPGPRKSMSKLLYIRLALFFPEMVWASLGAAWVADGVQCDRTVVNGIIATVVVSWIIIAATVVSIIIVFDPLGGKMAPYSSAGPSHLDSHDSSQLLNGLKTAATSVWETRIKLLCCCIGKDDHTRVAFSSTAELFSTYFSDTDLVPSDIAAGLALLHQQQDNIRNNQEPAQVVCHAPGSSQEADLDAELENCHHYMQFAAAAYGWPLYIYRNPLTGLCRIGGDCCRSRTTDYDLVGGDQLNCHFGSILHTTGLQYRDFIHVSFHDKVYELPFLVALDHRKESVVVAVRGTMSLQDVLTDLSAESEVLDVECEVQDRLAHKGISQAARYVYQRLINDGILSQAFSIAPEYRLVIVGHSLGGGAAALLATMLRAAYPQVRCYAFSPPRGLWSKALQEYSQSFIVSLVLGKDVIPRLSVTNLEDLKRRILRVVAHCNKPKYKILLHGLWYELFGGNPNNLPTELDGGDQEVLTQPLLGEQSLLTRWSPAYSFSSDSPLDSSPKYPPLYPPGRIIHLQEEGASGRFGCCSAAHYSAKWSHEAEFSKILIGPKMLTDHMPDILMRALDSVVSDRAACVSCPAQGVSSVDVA
Experiment Notes: Inhibition of human recombinant DAGLbeta overexpressed in african green monkey COS7 cells
Format: cell-based, COS-7
Quantity Name: IC50 (nM)
Entry rule: numbers only, all in nM.

GET /values?readout=IC50&item= O=C(NCCCCCCNC(=O)ON=C1CCCCC1)ON=C1CCCCC1 60

----------
Measurement Target: Neutral cholesterol ester hydrolase 1 (Homo sapiens)
Sequence (Q6PIU2 whole entry): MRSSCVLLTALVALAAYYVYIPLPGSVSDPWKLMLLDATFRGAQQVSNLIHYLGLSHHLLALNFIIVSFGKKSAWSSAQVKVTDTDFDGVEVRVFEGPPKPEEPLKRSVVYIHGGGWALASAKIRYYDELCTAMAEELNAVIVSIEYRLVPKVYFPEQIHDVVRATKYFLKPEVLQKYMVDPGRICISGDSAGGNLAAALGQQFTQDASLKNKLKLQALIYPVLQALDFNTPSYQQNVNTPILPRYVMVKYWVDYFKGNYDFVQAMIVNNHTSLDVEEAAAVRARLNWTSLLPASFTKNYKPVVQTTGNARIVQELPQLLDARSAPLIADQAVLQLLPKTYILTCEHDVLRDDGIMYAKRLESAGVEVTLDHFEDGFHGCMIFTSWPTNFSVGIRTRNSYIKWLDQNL
Experiment Notes: Inhibition of recombinant KIAA1363 transfected in HEK293T cells by SDS-PAGE using rhodamine-tagged FP probe
Quantity Name: IC50 (µM)
Entry rule: numbers only, all in µM.

Reported IC50 for Neutral cholesterol ester hydrolase 1 (Homo sapiens), given O=C(NCCCCCCNC(=O)ON=C1CCCCC1)ON=C1CCCCC1 ? 10

----------
Measurement Target: Lysophosphatidylserine lipase ABHD12 (Homo sapiens)
Sequence (Q8N2K0 whole entry): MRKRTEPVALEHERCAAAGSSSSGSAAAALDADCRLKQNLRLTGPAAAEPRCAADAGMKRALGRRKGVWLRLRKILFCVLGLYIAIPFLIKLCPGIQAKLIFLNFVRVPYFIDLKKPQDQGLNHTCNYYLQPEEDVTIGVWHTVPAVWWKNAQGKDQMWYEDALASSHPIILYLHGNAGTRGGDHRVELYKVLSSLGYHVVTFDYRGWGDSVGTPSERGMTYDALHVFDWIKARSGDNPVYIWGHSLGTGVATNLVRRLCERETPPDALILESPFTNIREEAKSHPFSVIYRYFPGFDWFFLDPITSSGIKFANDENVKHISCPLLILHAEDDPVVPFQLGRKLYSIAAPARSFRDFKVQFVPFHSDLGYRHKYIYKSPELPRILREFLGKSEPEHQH
Experiment Notes: Inhibition of recombinant ABHD12 transfected in HEK293T cells by SDS-PAGE using rhodamine-tagged FP probe
Quantity Name: IC50 (nM)
Entry rule: numbers only, all in nM.

GET /values?readout=IC50&item= CCCCCCCCCCC[C@@H](C[C@@H]1OC(=O)[C@H]1CCCCCC)OC(=O)[C@H](CC(C)C)NC=O 80
